Target: cloned human delta opioid receptor (Homo sapiens, UniProt P41143)
Construct: expressed in transfected cells
Sequence (P41143 whole entry): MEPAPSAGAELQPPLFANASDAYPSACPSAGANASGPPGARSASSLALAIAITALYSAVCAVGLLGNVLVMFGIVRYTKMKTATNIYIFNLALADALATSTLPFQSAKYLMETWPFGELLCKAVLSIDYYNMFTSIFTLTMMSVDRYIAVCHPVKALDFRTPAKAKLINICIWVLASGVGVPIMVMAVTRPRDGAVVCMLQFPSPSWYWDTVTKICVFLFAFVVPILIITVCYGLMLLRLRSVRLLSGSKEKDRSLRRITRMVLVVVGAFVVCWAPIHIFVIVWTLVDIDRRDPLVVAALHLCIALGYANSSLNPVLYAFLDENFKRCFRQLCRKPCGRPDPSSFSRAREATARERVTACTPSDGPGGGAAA
Test: GTP-γ-S Binding Assay, delta opioid receptor (Table 1: Receptor Binding)
Assay type: biochemical
Conditions: membranes from cells expressing cloned human delta receptor
So basically, if Ki comes in under 2000 nM it's T, and if it's 2000 nM or more it's F.

These solved cases illustrate the format of a correct answer.
- CC(=O)Nc1ccc(Oc2ccc(CCNCC(C)C)cc2)cc1: F
- CC(=O)Nc1ccc(Oc2ccc(CCNCc3cccc(Cl)c3)cc2)cc1: F
- NC(=O)c1ccc(Nc2ccc(CCNCc3ccccc3)cc2)nc1: F

Task: Ki under 2000 nM? Item: CC(=O)Nc1ccc(Oc2ccc(CCNCc3cccs3)cc2)cc1
Result: T

Task: I wonder whether NC(=O)c1ccc(Sc2ccc(CNCC3CC3)cc2)nc1 has Ki below 2000 nM. Can you tell?
Result: F

Task: Given NC(=O)c1ccc(Nc2ccc(CNCc3ccccc3)cc2)nc1 , is recorded Ki strictly lower than 2000 nM?
Result: T

Task: I wonder whether NC(=O)c1ccc([S+]([O-])c2ccc(CNCCc3ccccc3)cc2)cc1 (stereo not shown) has Ki below 2000 nM. Can you tell?
Result: T

Task: Does NC(=O)c1ccc(Nc2ccc(CNCCc3ccccc3)cc2)nc1 have Ki strictly under 2000 nM?
Result: F

Task: A record lists CC(=O)Oc1ccc(Oc2ccc(CCNCc3ccccc3)cc2)cc1 . Is its Ki below 2000 nM?
Result: F

Task: Could you please tell me whether Ki recorded for NC(=O)c1ccc(Nc2ccc(CNCC3CCCCC3)cc2)nc1 is less than 2000 nM?
Result: F

----------
Target: cloned human kappa opioid receptor (Homo sapiens, UniProt P41145)
Construct: expressed in transfected cells
Sequence (P41145 whole entry): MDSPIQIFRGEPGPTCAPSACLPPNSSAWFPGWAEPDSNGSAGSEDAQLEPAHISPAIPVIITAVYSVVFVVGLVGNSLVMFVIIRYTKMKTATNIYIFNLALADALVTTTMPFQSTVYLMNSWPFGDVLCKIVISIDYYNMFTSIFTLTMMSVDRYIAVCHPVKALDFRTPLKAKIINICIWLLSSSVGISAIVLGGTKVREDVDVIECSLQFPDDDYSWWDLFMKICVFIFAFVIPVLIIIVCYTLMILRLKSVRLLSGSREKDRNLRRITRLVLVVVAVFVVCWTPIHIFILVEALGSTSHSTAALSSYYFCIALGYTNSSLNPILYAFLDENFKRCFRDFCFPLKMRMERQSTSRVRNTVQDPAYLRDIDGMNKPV
Test: GTP-γ-S Binding Assay, kappa opioid receptor (Table 1: Receptor Binding)
Format: biochemical
Details: membranes from cells expressing cloned human kappa receptor
Experimental Readout: Ki

# annotated cases, reported Ki shown
• NC(=O)c1ccc(Nc2ccc(CNCC3CCCCC3)cc2)nc1 [Example 21] = > 4000 nM
• NC(=O)c1ccc(Nc2ccc(CNCCc3ccccc3)cc2)nc1 [Example 22] = > 4000 nM

Task: Using the record for CC(=O)Nc1ccc(Oc2ccc(CCNCc3cccc(Cl)c3)cc2)cc1 [Example 37] , report its Ki.
Result: > 4000 nM

----------
Listing of entries alongside the reported log10 of Ki.
Molecular target: cloned human kappa opioid receptor (Homo sapiens, UniProt P41145)
Construct: expressed in transfected cells
Test: GTP-γ-S Binding Assay, kappa opioid receptor (Table 1: Receptor Binding)
Assay type: biochemical
Settings: membranes from cells expressing cloned human kappa receptor
Parameter value (number): base-10 log of Ki in nM.

• NC(=O)c1ccc([S+]([O-])c2ccc(CNCCc3ccccc3)cc2)cc1 (stereo not drawn) = 2.82

Task: Reported log10 of Ki for NC(=O)c1ccc(Nc2ccc(CCNCC3CCCCC3)cc2)nc1 : what is it?
Result: 2.67

Task: Record request: log10 of Ki value, item CC(=O)Nc1ccc(Oc2ccc(CCN)cc2)cc1
Result: 3.60

Task: Sample NC(=O)c1ccc(Nc2ccc(CNCc3ccccc3)cc2)nc1 — what was its log10 of Ki?
Result: 2.60

Task: Item under review: CC(=O)Nc1ccc(Oc2ccc(CCNCCC3CCCCC3)cc2)cc1 . Reported log10 of Ki?
Result: 2.21

Task: Item under review: CC(C)CCNCc1ccc(Sc2ccc(C(N)=O)cn2)cc1 . Reported log10 of Ki?
Result: 3.39

Task: May I ask what log10 of Ki has been recorded for CC(=O)Nc1ccc(Oc2ccc(CCNC(=O)OC(C)(C)C)cc2)cc1 ?
Result: 3.43

----------
Target: cloned human mu opioid receptor (Homo sapiens, UniProt P35372)
Construct: expressed in transfected cells
Sequence (P35372 whole entry): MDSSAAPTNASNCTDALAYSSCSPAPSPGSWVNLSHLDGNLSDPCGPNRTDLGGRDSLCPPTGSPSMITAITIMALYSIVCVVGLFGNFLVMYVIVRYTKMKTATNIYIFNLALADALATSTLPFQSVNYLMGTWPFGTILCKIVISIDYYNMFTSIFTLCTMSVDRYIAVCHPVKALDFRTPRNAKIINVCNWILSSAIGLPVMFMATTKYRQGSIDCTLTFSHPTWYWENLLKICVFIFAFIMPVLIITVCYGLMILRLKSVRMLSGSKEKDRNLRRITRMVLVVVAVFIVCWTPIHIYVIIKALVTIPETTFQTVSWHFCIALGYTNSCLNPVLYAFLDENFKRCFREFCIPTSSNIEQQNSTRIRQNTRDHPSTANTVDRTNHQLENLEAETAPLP
Test: GTP-γ-S Binding Assay, mu opioid receptor (Table 1: Receptor Binding)
Format: biochemical
Conditions: Receptor Binding (Ki, nM) Mu, membranes from cells expressing cloned human mu receptor
Experimental Readout: Ki (nM)
Please respond with the number in nM and leave the unit unwritten.

• CC(=O)Nc1ccc(Oc2ccc(CCN)cc2)cc1 [Example 25] = 67.5

Task: Which Ki reading was recorded for the compound NCCc1ccc(Nc2ccc(C(N)=O)cn2)cc1 [Example 16] ?
Result: 45.4

----------
Target: cloned human kappa opioid receptor (Homo sapiens)
Construct: expressed in transfected cells
Assay: GTP-γ-S Binding Assay, kappa opioid receptor (Table 1: Receptor Binding)
Format: biochemical
Conditions: membranes from cells expressing cloned human kappa receptor
Experimental Readout: Ki

* CC(=O)Nc1ccc(Oc2ccc(CCNCC(C)C)cc2)cc1 | > 4000 nM
* CC(=O)Nc1ccc(Oc2ccc(CCNCc3ccco3)cc2)cc1 | > 4000 nM
* NC(=O)c1ccc(Sc2ccc(CNCC3CC3)cc2)nc1 | > 5000 nM

# context switch: different compound, same Ki
Task: Which Ki is listed for CC(=O)c1ccc(Oc2ccc(CCNCc3ccccc3)cc2)cc1 ?
Result: > 5000 nM

----------
Target: cloned human mu opioid receptor (Homo sapiens)
Construct: expressed in transfected cells
Assay: GTP-γ-S Binding Assay, mu opioid receptor (Table 1: Receptor Binding)
Format: biochemical
Conditions: membranes from cells expressing cloned human mu receptor; read-out: Receptor Binding (Ki, nM) Mu
Experimental Readout: Ki

These recorded examples may help you get a feel for the data.
- NC(=O)c1ccc(Nc2ccc(CNCCc3ccccc3)cc2)nc1: > 3000 nM
- NC(=O)c1ccc(Nc2ccc(CNCC3CCCCC3)cc2)nc1: > 3000 nM
- CC(=O)Nc1ccc(Oc2ccc(CCNCc3ccco3)cc2)cc1: > 2500 nM

Below: the item to evaluate.
Task: Could you tell me which Ki is on file for CC(=O)Nc1ccc(Oc2ccc(CCNC3CCCCC3)cc2)cc1 ?
Result: > 2500 nM
